Test system: Peptococcus magnus KY 017
test.protocol: MIC, in vitro antibacterial activity (standard strains)
Type: cell-based
condition.label: Finegoldia magna, KY017; 10^6 cells/ml; Gram +; read-out: MIC

>  <compound>
CC1CN(c2c(F)cc3c(=O)c(C(=O)O)cn(C4CC4)c3c2Cl)CC1N (stereo not drawn)

>  <u>
µg/mL

>  <cmp>
=

>  <MIC>
0.05

$$$$
>  <compound>
C[C@H]1CN(c2c(F)cc3c(=O)c(C(=O)O)cn4c3c2OC[C@@H]4C)C[C@H]1N.Cl (mixture of isomers)

>  <u>
µg/mL

>  <cmp>
=

>  <MIC>
0.2

$$$$
>  <compound>
CC1COc2c(N3C[C@@H](N)[C@@H](C)C3)c(F)cc3c(=O)c(C(=O)O)cn1c23.Cl (relative stereo)

>  <u>
µg/mL

>  <cmp>
=

>  <MIC>
0.78

$$$$
>  <compound>
C[C@@H]1CN(c2c(F)cc3c(=O)c(C(=O)O)cn(C4CC4)c3c2Br)C[C@H]1N (relative stereo)

>  <u>
µg/mL

>  <cmp>
=

>  <MIC>
0.05

$$$$
>  <compound>
CC1CN(c2c(F)cc3c(=O)c(C(=O)O)cn(C4CC4)c3c2Cl)CC1CN (stereo not drawn)

>  <u>
µg/mL

>  <cmp>
≤

>  <MIC>
0.05

$$$$
>  <compound>
C[C@H]1CN(c2c(F)cc3c(=O)c(C(=O)O)cn(C4CC4)c3c2F)C[C@H]1N.Cl (relative stereo)

>  <u>
µg/mL

>  <cmp>
=

>  <MIC>
0.2

$$$$
>  <compound>
CNCC1CN(c2c(F)cc3c(=O)c(C(=O)O)cn(C4CC4)c3c2Cl)CC1C (stereo not drawn)

>  <u>
µg/mL

>  <cmp>
=

>  <MIC>
0.05

$$$$
>  <compound>
CCNCC1CN(c2c(F)cc3c(=O)c(C(=O)O)cn(C4CC4)c3c2F)CC1C (stereo not drawn)

>  <u>
µg/mL

>  <cmp>
≤

>  <MIC>
0.05

$$$$
>  <compound>
C[C@H]1CN(c2c(F)cc3c(=O)c(C(=O)O)cn(C4CC4)c3c2Br)C[C@H]1N (relative stereo)

>  <u>
µg/mL

>  <cmp>
=

>  <MIC>
0.05

$$$$
>  <compound>
C[C@H]1CN(c2cc3c(cc2F)c(=O)c(C(=O)O)cn3C2CC2)C[C@H]1N (relative stereo)

>  <u>
µg/mL

>  <cmp>
=

>  <MIC>
0.39

$$$$
>  <compound>
C[C@H]1CN(c2c(F)cc3c(=O)c(C(=O)O)cn(CCF)c3c2Cl)C[C@H]1N (relative stereo)

>  <u>
µg/mL

>  <cmp>
=

>  <MIC>
0.78

$$$$
>  <compound>
C[C@@H]1CN(c2c(F)cc3c(=O)c(C(=O)O)cn(C4CC4)c3c2Cl)C[C@H]1N (relative stereo)

>  <u>
µg/mL

>  <cmp>
=

>  <MIC>
0.05

$$$$
>  <compound>
C[C@@H]1CN(c2c(F)cc3c(=O)c(C(=O)O)cn(C4CC4)c3c2F)C[C@H]1N (relative stereo)

>  <u>
µg/mL

>  <cmp>
=

>  <MIC>
0.05

$$$$
>  <compound>
CNCC1CN(c2c(F)cc3c(=O)c(C(=O)O)cn(C4CC4)c3c2F)CC1C (stereo not drawn)

>  <u>
µg/mL

>  <cmp>
≤

>  <MIC>
0.05

$$$$
>  <compound>
CCn1cc(C(=O)O)c(=O)c2cc(F)c(N3C[C@@H](N)[C@@H](C)C3)c(Cl)c21 (relative stereo)

>  <u>
µg/mL

>  <cmp>
=

>  <MIC>
0.78

$$$$

----------
Test system: C. perfringens KYA 13123
test.protocol: microbe, parasite or virus in culture
Type: cell-based
condition.label: Clostridium perfringens, KYA13123
# key: entry, value: MIC
measurement.name: MIC

>  <molecule>
C[C@H]1CN(c2c(F)cc3c(=O)c(C(=O)O)cn(C4CC4)c3c2F)C[C@H]1N.Cl (relative stereo)

>  <experimental.result>
0.2 µg/mL

$$$$
>  <molecule>
C[C@@H]1CN(c2c(F)cc3c(=O)c(C(=O)O)cn(C4CC4)c3c2F)C[C@H]1N (relative stereo)

>  <experimental.result>
0.1 µg/mL

$$$$
>  <molecule>
CCn1cc(C(=O)O)c(=O)c2cc(F)c(N3C[C@@H](N)[C@@H](C)C3)c(Cl)c21 (relative stereo)

>  <experimental.result>
0.78 µg/mL

$$$$
>  <molecule>
C[C@H]1CN(c2c(F)cc3c(=O)c(C(=O)O)cn(CCF)c3c2Cl)C[C@H]1N (relative stereo)

>  <experimental.result>
0.39 µg/mL

$$$$

----------
# key: entry, value: MIC
Test system: E. limosum KYA 8486
test.protocol: MIC, in vitro antibacterial activity (standard strains)
Assay type: cell-based
condition.label: Eubacterium limosum, KYA8486; 10^6 cells/ml; Gram +; read-out: MIC

>  <compound>
CC1CN(c2c(F)cc3c(=O)c(C(=O)O)cn(C4CC4)c3c2Cl)CC1CN (stereo not drawn) [Example 1]

>  <MIC [µg/mL]>
0.39

$$$$
>  <compound>
CCn1cc(C(=O)O)c(=O)c2cc(F)c(N3C[C@@H](N)[C@@H](C)C3)c(Cl)c21 (relative stereo) [Example 23]

>  <MIC [µg/mL]>
6.25

$$$$
>  <compound>
CCNCC1CN(c2c(F)cc3c(=O)c(C(=O)O)cn(C4CC4)c3c2F)CC1C (stereo not drawn) [Example 15]

>  <MIC [µg/mL]>
1.56

$$$$

----------
Tested on: E. coli ATCC 10536
test.protocol: MIC, in vitro antibacterial activity (standard strains)
Assay type: cell-based, Escherichia coli
condition.label: Escherichia coli, ATCC10536; 10^6 cells/ml; Gram -; read-out: MIC
# key: entry, value: MIC

>  <compound>
C[C@H]1CN(c2c(F)cc3c(=O)c(C(=O)O)cn(C4CC4)c3c2Cl)C[C@H]1N (relative stereo) [Example 16]

>  <u>
µg/mL

>  <MIC>
0.0125

$$$$
>  <compound>
CC1CN(c2c(F)cc3c(=O)c(C(=O)O)cn(C4CC4)c3c2F)CC1N.Cl (stereo not drawn) [Example 11]

>  <u>
µg/mL

>  <MIC>
0.025

$$$$
>  <compound>
CCn1cc(C(=O)O)c(=O)c2cc(F)c(N3CCNCC3)cc21 [NFLX, norfloxacin, reference compound]

>  <u>
µg/mL

>  <MIC>
0.05

$$$$

----------
Test system: Serratia marcescens IID 618
test.protocol: MIC, in vitro antibacterial activity (standard strains)
Format: cell-based
condition.label: Serratia marcescens, IID618; 10^6 cells/ml; Gram -; read-out: MIC

>  <compound>
CCNCC1CN(c2c(F)cc3c(=O)c(C(=O)O)cn(C4CC4)c3c2Cl)CC1C (stereo not drawn)

>  <u>
µg/mL

>  <MIC>
0.2

$$$$
>  <compound>
CCNCC1CN(c2c(F)cc3c(=O)c(C(=O)O)cn(C4CC4)c3c2F)CC1C (stereo not drawn)

>  <u>
µg/mL

>  <MIC>
0.2

$$$$
>  <compound>
C[C@H]1CN(c2c(F)cc3c(=O)c(C(=O)O)cn(C4CC4)c3c2F)C[C@H]1N.Cl (relative stereo)

>  <u>
µg/mL

>  <MIC>
0.05

$$$$
>  <compound>
C[C@H]1CN(c2c(F)cc3c(=O)c(C(=O)O)cn(C4CC4)c3c2Br)C[C@H]1N (relative stereo)

>  <u>
µg/mL

>  <MIC>
0.025

$$$$
>  <compound>
C[C@@H]1CN(c2c(F)cc3c(=O)c(C(=O)O)cn(C4CC4)c3c2F)C[C@H]1N (relative stereo)

>  <u>
µg/mL

>  <MIC>
0.05

$$$$
>  <compound>
C[C@H]1CN(c2c(F)cc3c(=O)c(C(=O)O)cn(C4CC4)c3c2Cl)C[C@H]1N (relative stereo)

>  <u>
µg/mL

>  <MIC>
0.05

$$$$

----------
# key: entry, value: MIC
Test system: Pseudomonas aeruginosa V-1
test.protocol: MIC, in vitro antibacterial activity (standard strains)
Type: cell-based
condition.label: Pseudomonas aeruginosa, V1; 10^6 cells/ml; Gram -; read-out: MIC

>  <molecule>
C[C@H]1CN(c2cc3c(cc2F)c(=O)c(C(=O)O)cn3C2CC2)C[C@H]1N (relative stereo)

>  <assayed.system>
Pseudomonas aeruginosa V-1

>  <MIC>
0.2 mg/L

$$$$
>  <molecule>
CCn1cc(C(=O)O)c(=O)c2cc(F)c(N3C[C@@H](N)[C@@H](C)C3)c(F)c21 (relative stereo)

>  <assayed.system>
Pseudomonas aeruginosa V-1

>  <MIC>
0.39 mg/L

$$$$
>  <molecule>
CC1CN(c2c(F)cc3c(=O)c(C(=O)O)cn(C4CC4)c3c2F)CC1N.Cl (stereo not shown)

>  <assayed.system>
Pseudomonas aeruginosa V-1

>  <MIC>
0.39 mg/L

$$$$
>  <molecule>
C[C@H]1CN(c2c(F)cc3c(=O)c(C(=O)O)cn(C4CC4)c3c2Br)C[C@H]1N (relative stereo)

>  <assayed.system>
Pseudomonas aeruginosa V-1

>  <MIC>
0.39 mg/L

$$$$
>  <molecule>
CC1CN(c2c(F)cc3c(=O)c(C(=O)O)cn(C4CC4)c3c2Cl)CC1CN (stereo not shown)

>  <assayed.system>
Pseudomonas aeruginosa V-1

>  <MIC>
0.1 mg/L

$$$$
>  <molecule>
C[C@@H]1CN(c2c(F)cc3c(=O)c(C(=O)O)cn(C4CC4)c3c2F)C[C@H]1N (relative stereo)

>  <assayed.system>
Pseudomonas aeruginosa V-1

>  <MIC>
0.1 mg/L

$$$$
>  <molecule>
CCn1cc(C(=O)O)c(=O)c2cc(F)c(N3C[C@@H](N)[C@@H](C)C3)c(Cl)c21 (relative stereo)

>  <assayed.system>
Pseudomonas aeruginosa V-1

>  <MIC>
0.39 mg/L

$$$$

This collection of values is drawn from patent US4753953A.
